Source listed as patent US20160368965A1.

- Experimental system: T1, HLA-A*02:01 (human)
- T1 construct: the tested peptide takes its place; also called peptide-receptive MHC molecules; MHC class I
- Method: UV-ligand exchange, anti-β2m ELISA; grade of peptide exchange yield
- Text: Candidate peptides for T cell based therapies according to the present invention were further tested for their MHC binding capacity (affinity). The individual peptide-MHC complexes were produced by UV-ligand exchange, where a UV-sensitive peptide is cleaved upon UV-irradiation, and exchanged with the peptide of interest as analyzed. Only peptide candidates that can effectively bind and stabilize the peptide-receptive MHC molecules prevent dissociation of the MHC complexes. […]
Property measured: peptide exchange yield

Binder	Value measured
FILPIGATV [FILPIGATV (SEQ ID NO: 84)]	≥ 75%
ALWHDAENQTVV [ALWHDAENQTVV (SEQ ID NO: 19)]	50 to 75%

Q: Identify peptide exchange yield associated with the binder LLFGSDGYYV [LLFGSDGYYV (SEQ ID NO: 50)]
Result: 50 to 75%

Q: Please give measured peptide exchange yield of the following entry: FLIEEQKIVV [FLIEEQKIVV (SEQ ID NO: 131)]
Result: 50 to 75%
